Test context: in ethyl formate, 308.15 K
Parameter: solubility (mole fraction)

{"Query smiles": "CN1CCN(C2=Nc3cc(Cl)ccc3Nc3ccccc32)CC1", "Parameter": "solubility (mole fraction)", "Value measured": 0.047}

* * *

Test context: in 2-butanone, 278.15 K

{"Query smiles": "CN1CCN(C2=Nc3cc(Cl)ccc3Nc3ccccc32)CC1", "solubility (mole fraction)": 0.0216}

* * *

Test context: in sec-butanol, 323.15 K

{"Query smiles": "CN1CCN(C2=Nc3cc(Cl)ccc3Nc3ccccc32)CC1", "solubility (mole fraction)": 0.0107}

* * *

Test context: in isopentanol, 323.15 K

{"Query smiles": "CN1CCN(C2=Nc3cc(Cl)ccc3Nc3ccccc32)CC1", "solubility (mole fraction)": 0.0212}
